tested on: endogenous genome targets (ACTB, HSP90AA1); assay: Arrayed SSAP library screening, mKate knock-in assay (editing efficiency); format: cell-based; conditions: percent of mKate knock-in; average of HSP90 and ACTB; 3 days after transfection
Would you mind telling me the reported Editing Efficiency (Absolute, Average, two targets) of each entry?
// response body must contain only the number

Quick note, Editing Efficiency (Absolute, Average, two targets) for SSAP_67: SEQ ID NO: 236 (protein) TSQQLDTTHTINQQVTTFRHTLVQMKNEIAAALPAHMTGDRFLRLILTEVRKNPELAECSTESIFGGILTAAALGLEPGLNGECWLIPRKVGKGPGSRKEATFQVGYKGIIKLFWQNPLASYLDTGVVYANDAWKFRKGLDPILEHTPATGDRGAVRGYYAVVGLTTGARIFDFFTPKQISALRGTAGPNGGISDPEHWMERKTALLQVMKMAPKSTDLASAASVDGTVQTVEAAAQVAAASTGPVNPTTGEVLEAEPVEGGAA landed at 11.4625

According to the records, this molecule SSAP_20: SEQ ID NO: 189; CK3_26380 butyrate-producing bacterium SS3/4 (protein, butyrate-producing bacterium SS3/4) ENATAVQQAESQGTQDFSAPVKHNTDFSLGIFGSSDNFLMATQMAKAFASSTIVPKEYQGNFANGLVAMDIANRLKTSPFMVMQNLDVIQGRPAWRATFLIAMINRSKKYDIELQFEEKRDKNGKPYSCTCWTTKDGRKVTGIEVTMDMAEAEGWTKKNGSKWITMPQVMLRYRAASFFSRMNCPELSNGLYTTDEVYEMADSEYKVYNLEDEVKRDLAQNANKEEFVAPPNETAPESESKGSEPLDPAVENQKSGDTPDWMKPETM displays Editing Efficiency (Absolute, Average, two targets) of 14.85

The measured Editing Efficiency (Absolute, Average, two targets) associated with SSAP_235: SEQ ID NO: 404; Streptomyces sp. adm13(2018) (protein, listed as Streptomyces sp.) SQIGNEIARQSHSPAAIIEQHKADLAVVAASHVRVDTFARLAVGVLRQNEKLAAAAANNPGSLMSALMTAARLGLEPGTEQFYLRPIKRKGQLEVQGIVGYQGIVELIYNAGAAQSVVVEVVRARDEFAWTPGALDEHRPPRWPGAMKQPHHKVDWFGDRGPLVGAYAYAVMQGGAISKVVVLNRDHIARAKAKSDGADTDYSPWRTDEEAMWLKTAARRLGKWVPTSAEKRTGVIERLDTPPAPLNEIDPDEDDEPIDGELVD reads 10.53

// recorded Editing Efficiency (Absolute, Average, two targets) for SSAP_158: SEQ ID NO: 327; Nakamurella lactea (protein, Nakamurella lacteal, Nakamurella lactea) ASNLAARAAEQVEQQTAPNRPPTIKEQIGRMESQFALAMPRGSEAAQLVRDAITAINTNPQLAECTPASVLGALMTCAQLGLRPGVLGHAWVLPFRSKGVMQAQLVIGYQGLVELAHRTGQVASLIAREVHERDHFDVDYGLADSLIHKPLLNGDRGPVTGYYAIVKFKGGGHSFIYASKADVEAHRDKFSKMKSFGPWVDNFDSMALKTVVRMLAKWMPKSTEFANAISADEGVRVDYSPTADVAQATEYVQPQLEEAPVEGVVVSEGGES : 13.45

Entry SSAP_221: SEQ ID NO: 390; Streptomyces sp. 351MFTsu5.1 (protein, listed as Streptomyces sp.) SQISNAIEKRDQGPGAVIEQYKQELALVAASHVKVDTFARLAVGALRQNPKLAAAAQSNPGSLMSALMTAARLGLEPGTEQFYLRPIKRKGVAEVQGIVGYQGIVELIYNAGAASSVVVEVVRANDQFNYVPGLHERPVHNVDWFGDRGDLVGVYAYAVMAGGATSKVVVLSRTHINRAKAKSDGADSDYSPWRTDEEAMWLKTAARRLGKWVPTSAERLTMPAERTDTVLPVGSAAPALDAADPDEDEGPVDGELEPAGGWPETAQPPQ — recorded Editing Efficiency (Absolute, Average, two targets) = 11.35

Entry SSAP_10: SEQ ID NO: 179; Bet Escherichia coli (protein, listed as Escherichia coli) STALATLAGKLAERVGMDSVDPQELITTLRQTAFKGDASDAQFIALLIVANQYGLNPWTKEIYAFPDKQNGIVPVVGVDGWSRIINENQQFDGMDFEQDNESCTCRIYRKDRNHPICVTEWMDECRREPFKTREGREITGPWQSHPKRMLRHKAMIQCARLAFGFAGIYDKDEAERIVENTAYTAERQPERDITPVNNETMQEINTLLIALDKTWDDDLLPLCSQIFRRDIRASSELTQAEAVKALGFLKQKATEQKVAA , Editing Efficiency (Absolute, Average, two targets) reported as 14.25

For record SSAP_210: SEQ ID NO: 379; Rufibacter latericius (protein, listed as Rufibacter latericius) SNQLQVAREQVISAQKSFKNVPNNKLDFEREAGFAMQMIQSNPFLASMDANSIRNCIVNVALTGLTLNPVLKLAYLVPRKGKLILDPSYMGLINVLVTSGAAKKIEADVVCENDFFDYEKGTNGFIKHKPSLSSRGEIIAAYAIAHLPNGEVQFEIMNREELEKVRKSSEAAKKGSSPYDGWASEMMRKAPIRRLFKYLPKHNIPDQVINTLSLDEQNNGVDFSAQKQEAFKGKAADFFEDEPANTVDADYTDMSHEEADNELAA the listed Editing Efficiency (Absolute, Average, two targets) is 16.05

// SSAP_6: SEQ ID NO: 175 (protein) STALATLAGKLAERVGMDSVDPQELITTLRQTAFKGDASDAQFIALLIVANQYGLNPWTKEIYAFPDKQNGIVPVVGVDGWSRIINENQQFDGMDFEQDNESCTCRIYRKDRNHPICVTEWMDECRREPFKTREGREITGPWQSHPKRMLRHKAMIQCARLAFGFAGIYDKDEAERIVENTAYTAERQPERDITPVNDETMQEINTLLIALDKTWDDDLLPLCSQIFRRDIRASSELTQAEAVKALGFLKQKATEQKVAA : Editing Efficiency (Absolute, Average, two targets) value = 12.075

Per the record, SSAP_309: SEQ ID NO: 478; Paenibacillus sp. FSL R7-0333 (protein, listed as Paenibacillus sp.) TVAIELQVQETLDRILDSKHDALPSDFNKKRFSENCKAYVADEKDLHKYSPEEIAANLFKGAVLGLDFLAKECHLISGGVELKFQTDYKGEMKLTKKYSVRPLLDVYAKNVREGDEFREEVIEGRPVIHFAPLPFNASSIIGSFAVALFQDGGMVYESIPAGEIEEIRKNYGKSLGDAWDKSQGEMYKRTVLRRLCKTIETDFDAEQRLIYDAGGAFEFTKQPARSRQQSPFNPPEESEVTQDDRVAETDQG has Editing Efficiency (Absolute, Average, two targets) of 9.885
